target: CGRP1 receptor (CRLR/RAMP1 complex) of human neuroblastoma SK-N-MC cells (human, UniProt Q16602 23-461; O60894 27-148); experiment: cell-based or functional assay
Sequence (Q16602 23-461, chain 1 of 2): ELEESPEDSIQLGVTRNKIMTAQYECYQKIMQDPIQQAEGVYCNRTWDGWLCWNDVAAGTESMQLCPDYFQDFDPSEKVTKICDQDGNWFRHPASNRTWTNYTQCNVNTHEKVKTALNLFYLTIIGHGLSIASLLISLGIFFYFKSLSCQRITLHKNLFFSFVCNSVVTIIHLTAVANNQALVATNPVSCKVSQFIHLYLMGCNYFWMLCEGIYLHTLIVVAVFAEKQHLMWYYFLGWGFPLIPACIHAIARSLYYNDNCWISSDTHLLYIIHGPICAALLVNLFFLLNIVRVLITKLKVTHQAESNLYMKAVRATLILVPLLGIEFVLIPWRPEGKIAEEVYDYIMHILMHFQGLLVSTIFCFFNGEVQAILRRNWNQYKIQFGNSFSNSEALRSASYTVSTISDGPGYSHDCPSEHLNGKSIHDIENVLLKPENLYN
Sequence (O60894 27-148, chain 2 of 2): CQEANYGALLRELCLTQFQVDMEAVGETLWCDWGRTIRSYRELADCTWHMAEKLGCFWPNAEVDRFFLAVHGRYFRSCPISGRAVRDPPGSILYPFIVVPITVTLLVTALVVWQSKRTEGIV
reported metric: Peptide IC50 (nM)

WVTHRLAGLLSXSGGVVRKNFVPTDVGPFAF (Ac-WVTHRLAGLLS[hArg]SGGVVRKNFVPTDVGPFAF-NH2) [SEQ ID NO 864] | 0.57
WVTHXLAGLLSXSGGVVXKNFVPTDVGPFAF (Ac-WVTH[Cit]LAGLLS[hArg]SGGVV[BhArg]KNFVPTDVGPFAF-NH2) [SEQ ID NO 936] | 2.41
WVEHRLKGELSXKGGVVXKNFVPTDVGPFAF (Ac-WVEHRLKGELS[Cit]KGGVV[hArg]KNFVPTDVGPFAF-NH2) [SEQ ID NO 902] | 0.49
Ac-WVTHRLAGLASRPGGVVRKNFVPTDVGPFAF-NH2 [SEQ ID NO 859] | 1.41
WVTHXLAGLLSXSGGVVXKNXVPTDVGXFAX (Ac-WVTH[Cit]LAGLLS[Cit]SGGVV[hArg]KN[2-Nal]VPTDVG[Oic]FA[2-Nal]-NH2) [SEQ ID NO 954] | 3.45
WVTHXLAGLLSXSGGVVXKNXVXTDVGXFAX (Ac-WVTH[Cit]LAGLLS[Cit]SGGVV[hArg]KN[2-Nal]V[Oic]TDVG[Oic]FA[2-Nal]-NH2) [SEQ ID NO 955] | 3.57
